All values here come from patent US9962369B2.

test system: human skin tissue; assay: Penetration rate of AI compound in AI-helper composition through human skin in vitro, modified Franz cells; assay type: in vitro ADME; settings: 2-(Diethylamino)ethyl 2-(4-isobutylphenyl)propionate hydrochloride 6% w/v, Al compound 0.5% w/v, water, 25 °C
assay endpoint: Skin penetration rate of Al compound (μg/cm^2/h)
Number in μg/cm^2/h, nothing else.

Here's what some known entries look like.
N[C@@H](CCC(=O)N[C@@H](CS)C(=O)NCC(=O)O)C(=O)O | 16.356
O=C1O[C@H]([C@@H](O)CO)C(O)=C1O | 10.112
Nc1nc2ncc(CNc3ccc(C(=O)N[C@@H](CCC(=O)O)C(=O)O)cc3)nc2c(=O)[nH]1 | 6.235
CC1=C(/C=C/C(C)=C/C=C/C(C)=C/C=C/C=C(C)/C=C/C=C(C)/C=C/C2=C(C)C(=O)[C@@H](O)CC2(C)C)C(C)(C)C[C@H](O)C1=O | 12.331
CC1=C(/C=C/C(C)=C/C=C/C(C)=C/C=C/C=C(C)/C=C/C=C(C)/C=C/C2=C(C)CCCC2(C)C)C(C)(C)CCC1 | 10.138
O=C(O)CCCCC1CCSS1 (centres unmarked) | 30.478

Enquiry: // Skin penetration rate of Al compound lookup, key: Oc1ccc(C=Cc2cc(O)cc(O)c2)cc1
Return: 18.568

Enquiry: Using the record for NCCS(=O)(=O)O , report its Skin penetration rate of Al compound.
Return: 8.711
